Tested on: Pyricularia oryzae
test: whole plant or invertebrate
Assay type: in vivo
protocol.conditions: 192 h, read-out: efficacy
endpoint.name: pest or weed control at 500 ppm

Example cases with answers are listed next.
INSERT INTO results (molecule, result) VALUES
  ('C#Cc1cncn1CC(O)(Cc1ccccc1Cl)C1(Cl)CC1 (centres unmarked)', '90 to 100%'),
  ('N#Cc1cncn1CC(O)(Cc1ccccc1Cl)C1(Cl)CC1 (centres unmarked)', '90 to 100%');

Returns the measured pest or weed control at 500 ppm for the input molecule. Input: N#Cc1cncn1CC(O)(Cc1ccc(F)cc1)C1(Cl)CC1 (centres unmarked)
90 to 100%

Same thing, different molecule: N#Cc1cncn1CC(O)(Cc1ccccc1Cl)CC1CC1 (centres unmarked)
70 to 79%

Same thing, different molecule: N#Cc1cncn1CC(O)(Cc1ccc(F)cc1Cl)C1(Cl)CC1 (centres unmarked)
70 to 79%

Same thing, different molecule: N#Cc1cncn1CC(O)(Cc1ccncc1C(F)(F)F)C1(Cl)CC1 (centres unmarked)
80 to 89%

Same thing, different molecule: N#Cc1cncn1CC(O)(Cc1ccccc1)C1(Cl)CC1 (centres unmarked)
90 to 100%

Same thing, different molecule: OC(Cc1ccncc1Cl)(Cn1cncc1Cl)C1(Cl)CC1 (centres unmarked)
90 to 100%

----------
Tested on: Pyricularia oryzae
test: whole plant or invertebrate
Assay type: in vivo
protocol.conditions: 192 h, read-out: efficacy
Reported pest or weed control at 500 ppm by item:

INSERT INTO measurements (compound, result) VALUES
  ('OC(Cc1ccc(F)cc1Cl)(Cn1cncc1Cl)C1(Cl)CC1 (centres unmarked) [Example I-08]', '70 to 79%'),
  ('OC(Cc1cccnc1Cl)(Cn1cncc1Br)C1(Cl)CC1 (centres unmarked) [Example I-25]', '70 to 79%'),
  ('N#Cc1cncn1CC(O)(Cc1ccccc1Br)C1(Cl)CC1 (centres unmarked) [Example I-40]', '70 to 79%');

Returns the measured pest or weed control at 500 ppm for the input compound. Input: N#Cc1cncn1CC(O)(Cc1ccccc1Cl)C1(F)CC1 (centres unmarked) [Example I-98]
90 to 100%

Same thing, different compound: OC(Cc1ccncc1F)(Cn1cncc1Cl)C1(Cl)CC1 (centres unmarked) [Example I-164]
70 to 79%

Same thing, different compound: N#Cc1cncn1CC(O)(Cc1ccc(F)cc1F)C1(Cl)CC1 (centres unmarked) [Example I-125]
80 to 89%

Same thing, different compound: OC(Cc1ccccc1Cl)(Cn1cncc1Cl)C1(Cl)CC1 (centres unmarked) [Example I-02]
70 to 79%

Same thing, different compound: OC(Cc1ccccc1Cl)(Cn1cncc1Br)C1(Cl)CC1 (centres unmarked) [Example I-04]
90 to 100%

----------
test: Measurement of LogP values by HPLC on reversed phase columns (EEC directive 79/831 Annex V.A8)
Format: physicochemical
protocol.conditions: method [a]: LC-UV, acidic range, 0.1% formic acid in water and acetonitrile as eluent; Table 1
Kindly apply the following: True if chromatographic logP is less than 2, False in every other case.

Known results for compounds:
INSERT INTO assay_data (compound, discrete_label) VALUES
  ('N#Cc1cncn1CC(O)(Cc1cc(F)ncc1Cl)C1(Cl)CC1 (centres unmarked)', 'False'),
  ('N#Cc1cncn1CC(O)(Cc1ccc(Cl)cc1F)C1CCC1 (centres unmarked)', 'False'),
  ('OC(Cc1ccncc1F)(Cn1cncc1Cl)C1(Cl)CC1 (centres unmarked)', 'True'),
  ('N#Cc1cncn1CC(O)(C(F)c1ccccc1Cl)C1(Cl)CC1 (centres unmarked)', 'False'),
  ('OC(Cc1cccc(F)c1F)(Cn1cncc1Cl)C1(Cl)CC1 (centres unmarked)', 'False'),
  ('N#Cc1cncn1CC(O)(Cc1cccc(Cl)c1F)C1(F)CC1 (centres unmarked)', 'False');

Check if chromatographic logP falls below 2 for CC(C)C(O)(Cc1ccc(Cl)cc1F)Cn1cncc1C#N (centres unmarked) .
False

Same thing, different compound: N#Cc1cncn1CC(O)(Cc1ccccc1Cl)C1(F)CC1 (centres unmarked)
False

Same thing, different compound: N#Cc1cncn1CC(O)(Cc1cccc(F)c1F)CC1CC1 (centres unmarked)
False

Same thing, different compound: OC(Cc1cc(Cl)nc(Cl)c1)(Cn1cncc1Cl)C1(Cl)CC1 (centres unmarked)
False

Same thing, different compound: OC(Cc1ccnc(Cl)c1)(Cn1cncc1Cl)C1(Cl)CC1 (centres unmarked)
True
